assay-info: Acute toxicity, intravenous, in mice
measurement-conditions: mouse, in vivo, read-out: Maximum non-toxic dose
Where a name gives a salt, the structure may show the parent alone.
readout-name: NOAEL (mg/kg)
Express your answer in mg/kg, writing the number without its unit.

Guide cases for NOAEL, answers given:
>  <compound>
CC(C)(C)c1ccc2c(c1)OCC(CN1CCN(CCO)CC1)O2 (stereo not shown) [Example 5, dihydrochloride]

>  <NOAEL [mg/kg]>
100

$$$$
>  <compound>
CC(=O)OCCN1CCN(CC2COc3ccccc3O2)CC1 (stereo not shown) [Example 7, dihydrochloride]

>  <NOAEL [mg/kg]>
80

$$$$

Let us examine a further case.
For reference, reported NOAEL for OCCN1CCN(CC2COc3ccccc3O2)CC1 (stereo not shown) [Example 2] stands at 90
